Catalogue of molecules with associated %Inh
Tested on: PIM2;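 note: KINOMEscan kinase panel screen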
experimental_context: concentration: 1 μM,replicates: in singlicate; n = 1
measured_attribute: %Inh (%)

[[record]]
molecule = "c1ccc(Oc2ccc(Nc3ccnc4ccc(-c5ccccn5)cc34)cc2)cc1 [GW407034]"
target_under_test = "PIM2"
readout_unit = "%"
measured_result = 0

[[record]]
molecule = "O=C(Nc1ccccc1)c1cccc(Oc2ccc3nccn3n2)c1"
target_under_test = "PIM2"
readout_unit = "%"
measured_result = 5

[[record]]
molecule = "CC(=O)c1c(-c2ccncc2)[nH]c(-c2ccncc2)c1C [GW493036]"
target_under_test = "PIM2"
readout_unit = "%"
measured_result = 0

[[record]]
molecule = "CCn1c(-c2nonc2N)nc2cncc(CNC3CCNCC3)c21.Cl [SB-747651]"
target_under_test = "PIM2"
readout_unit = "%"
measured_result = 81

[[record]]
molecule = "O=C(NCC1CC1)c1ccc(-c2cc(C(=O)NC3CC3)ccc2F)cc1 [GW810445]"
target_under_test = "PIM2"
readout_unit = "%"
measured_result = 0

[[record]]
molecule = "COc1cccc(CNC(=O)NC2CCN(c3ccnc(Nc4cc(OC)c(OC)c(OC)c4)n3)C2)c1 (stereo not drawn) [GSK1379765]"
target_under_test = "PIM2"
readout_unit = "%"
measured_result = 0

[[record]]
molecule = "COc1cccc(OC)c1C(=O)Nc1cccc(-c2nn3ccccc3c2-c2ccnc(Nc3cccc(F)c3)n2)c1 [GSK361065]"
target_under_test = "PIM2"
readout_unit = "%"
measured_result = 0

[[record]]
molecule = "CN(c1cccc(CNc2nc(Nc3ccc4c(c3)CC(=O)N4)ncc2C(F)(F)F)c1)S(C)(=O)=O"
target_under_test = "PIM2"
readout_unit = "%"
measured_result = 0

[[record]]
molecule = "CNC(=O)c1ccccc1Nc1nc(Nc2cccc(CS(C)(=O)=O)c2)ncc1C.O=CO [GSK1520489]"
target_under_test = "PIM2"
readout_unit = "%"
measured_result = 0

[[record]]
molecule = "CCCC(=O)Nc1n[nH]c2ncccc12 [SB-601436]"
target_under_test = "PIM2"
readout_unit = "%"
measured_result = 0

[[record]]
molecule = "C[C@@H](Oc1cc(-n2cnc3ccc(-c4ccncc4)cc32)sc1C(N)=O)c1ccccc1Cl [GSK483724]"
target_under_test = "PIM2"
readout_unit = "%"
measured_result = 64

[[record]]
molecule = "CS(=O)(=O)Nc1ccc(-c2ccnc3[nH]ccc23)cc1 [GSK993273]"
target_under_test = "PIM2"
readout_unit = "%"
measured_result = 0

[[record]]
molecule = "CC(C)S(=O)(=O)N1CCN(Cc2ccc3c(c2)nc(NC(=O)c2ccsc2)n3C[C@H](O)c2ccccc2)CC1 [GW635815]"
target_under_test = "PIM2"
readout_unit = "%"
measured_result = 0

[[record]]
molecule = "O=C(Nc1n[nH]c2cc(-c3ccco3)ccc12)C1CC1 [SB-737447]"
target_under_test = "PIM2"
readout_unit = "%"
measured_result = 0

[[record]]
molecule = "Cn1ccc2ncnc(Oc3ccc(NC(=O)Nc4cnn(C(C)(C)C)c4)c(Cl)c3)c21"
target_under_test = "PIM2"
readout_unit = "%"
measured_result = 7

[[record]]
molecule = "Nc1nccc(-c2ccc3c(N)n[nH]c3c2)n1 [GSK1034945]"
target_under_test = "PIM2"
readout_unit = "%"
measured_result = 0

[[record]]
molecule = "COC(=O)c1cccc(NC(=O)NC2CCN(c3ccnc(Nc4cc(OC)c(OC)c(OC)c4)n3)C2)c1 (stereo not drawn) [GSK1379767]"
target_under_test = "PIM2"
readout_unit = "%"
measured_result = 0

[[record]]
molecule = "O=c1[nH]cc(-c2ccc(O)cc2)c2sc(-c3ccncc3)cc12 [GSK1033723]"
target_under_test = "PIM2"
readout_unit = "%"
measured_result = 13

